TEST_TARGET: NMDA (NR1/NR2A) receptors (Rattus norvegicus, UniProt P35439+Q00959)
Construct: expressed in transfected cells; host or cells: Xenopus laevis oocytes (RNA injection, 1:1)
Sequence (Q00959 23-1464, other chains not shown): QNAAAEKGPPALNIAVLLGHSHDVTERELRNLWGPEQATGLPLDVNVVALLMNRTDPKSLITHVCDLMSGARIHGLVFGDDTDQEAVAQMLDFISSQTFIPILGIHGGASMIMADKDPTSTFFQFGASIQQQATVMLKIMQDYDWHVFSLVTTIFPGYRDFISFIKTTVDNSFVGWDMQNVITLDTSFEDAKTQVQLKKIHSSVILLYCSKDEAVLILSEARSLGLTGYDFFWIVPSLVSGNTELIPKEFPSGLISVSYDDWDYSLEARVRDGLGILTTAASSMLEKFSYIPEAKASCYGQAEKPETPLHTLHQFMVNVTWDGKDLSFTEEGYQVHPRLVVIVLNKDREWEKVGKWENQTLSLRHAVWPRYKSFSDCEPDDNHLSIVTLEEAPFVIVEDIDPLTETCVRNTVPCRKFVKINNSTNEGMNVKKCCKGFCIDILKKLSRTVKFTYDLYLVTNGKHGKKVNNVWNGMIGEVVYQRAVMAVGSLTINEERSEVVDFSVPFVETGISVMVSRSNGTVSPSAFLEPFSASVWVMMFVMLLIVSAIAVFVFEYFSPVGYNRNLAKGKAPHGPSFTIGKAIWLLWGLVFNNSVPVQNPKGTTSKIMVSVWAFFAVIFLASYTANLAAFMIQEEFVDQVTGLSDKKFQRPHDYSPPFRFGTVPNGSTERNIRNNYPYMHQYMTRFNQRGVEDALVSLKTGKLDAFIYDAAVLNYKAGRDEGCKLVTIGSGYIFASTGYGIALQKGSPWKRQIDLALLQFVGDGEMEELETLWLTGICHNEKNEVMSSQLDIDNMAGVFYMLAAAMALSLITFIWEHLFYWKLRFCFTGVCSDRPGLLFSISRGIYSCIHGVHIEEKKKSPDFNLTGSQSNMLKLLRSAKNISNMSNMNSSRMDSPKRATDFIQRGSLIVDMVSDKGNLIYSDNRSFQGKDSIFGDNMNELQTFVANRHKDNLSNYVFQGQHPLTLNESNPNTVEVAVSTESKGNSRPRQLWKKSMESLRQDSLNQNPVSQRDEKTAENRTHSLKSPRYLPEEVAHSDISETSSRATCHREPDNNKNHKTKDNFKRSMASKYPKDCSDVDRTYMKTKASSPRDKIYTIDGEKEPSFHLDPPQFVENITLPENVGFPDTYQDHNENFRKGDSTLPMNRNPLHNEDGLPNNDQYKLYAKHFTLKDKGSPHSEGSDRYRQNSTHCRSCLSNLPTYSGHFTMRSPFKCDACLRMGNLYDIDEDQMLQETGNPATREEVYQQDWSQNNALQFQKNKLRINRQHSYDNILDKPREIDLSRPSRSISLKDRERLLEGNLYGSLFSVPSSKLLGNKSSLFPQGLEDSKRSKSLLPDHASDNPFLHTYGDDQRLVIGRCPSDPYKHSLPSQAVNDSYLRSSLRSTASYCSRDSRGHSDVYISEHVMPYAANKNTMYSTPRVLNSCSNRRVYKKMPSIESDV
EXPERIMENTAL_PROTOCOL: NMDA receptor two-electrode voltage clamp in oocytes at saturated drug concentration
Format: cell-based
CONDITION: saturating aqueous concentration
PROPERTY_LABEL: NMDA receptor modulation (in words)

FC1CC(F)(F)C(F)(F)C1(F)F (stereo not drawn) [HFCP, 1,1,2,2,3,3,4-heptafluorocyclopentane]; no effect
FC1C(F)C(F)(F)C(F)(F)C1(F)F (stereo not drawn) [1,1,2,2,3,3,4,5-octafluorocyclopentane]; no effect

---

TEST_TARGET: GABAA (α1β2γ2s) receptors (UniProt P14867+P18508+P63138)
Construct: expressed in transfected cells; host or cells: Xenopus laevis oocytes (intranuclear plasmid injection, α1:β2:γ2 = 1:1:10)
Sequence (P14867 28-456): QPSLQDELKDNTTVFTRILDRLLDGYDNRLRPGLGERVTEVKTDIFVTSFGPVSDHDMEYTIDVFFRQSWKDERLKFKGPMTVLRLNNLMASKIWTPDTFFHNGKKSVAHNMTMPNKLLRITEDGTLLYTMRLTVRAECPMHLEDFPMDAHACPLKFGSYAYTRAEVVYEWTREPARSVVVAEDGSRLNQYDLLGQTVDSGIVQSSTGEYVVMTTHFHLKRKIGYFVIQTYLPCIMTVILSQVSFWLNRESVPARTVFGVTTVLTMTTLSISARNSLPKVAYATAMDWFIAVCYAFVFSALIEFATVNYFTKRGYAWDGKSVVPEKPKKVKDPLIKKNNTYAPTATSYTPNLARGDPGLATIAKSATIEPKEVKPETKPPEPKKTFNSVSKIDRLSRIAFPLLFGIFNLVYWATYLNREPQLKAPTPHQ
Sequence (P63138 25-474 limits assumed): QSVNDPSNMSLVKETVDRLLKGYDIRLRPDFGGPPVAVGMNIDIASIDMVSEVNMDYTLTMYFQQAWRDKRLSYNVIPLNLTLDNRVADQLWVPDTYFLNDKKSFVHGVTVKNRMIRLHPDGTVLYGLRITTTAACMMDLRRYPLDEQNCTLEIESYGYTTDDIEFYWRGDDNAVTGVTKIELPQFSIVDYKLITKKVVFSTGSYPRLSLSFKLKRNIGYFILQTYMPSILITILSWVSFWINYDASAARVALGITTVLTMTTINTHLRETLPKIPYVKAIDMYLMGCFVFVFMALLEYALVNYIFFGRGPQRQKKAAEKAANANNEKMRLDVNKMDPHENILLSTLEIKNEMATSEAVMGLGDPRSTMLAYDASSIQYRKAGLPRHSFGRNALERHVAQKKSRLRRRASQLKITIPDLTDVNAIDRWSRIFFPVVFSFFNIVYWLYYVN
Sequence (P18508 39-466): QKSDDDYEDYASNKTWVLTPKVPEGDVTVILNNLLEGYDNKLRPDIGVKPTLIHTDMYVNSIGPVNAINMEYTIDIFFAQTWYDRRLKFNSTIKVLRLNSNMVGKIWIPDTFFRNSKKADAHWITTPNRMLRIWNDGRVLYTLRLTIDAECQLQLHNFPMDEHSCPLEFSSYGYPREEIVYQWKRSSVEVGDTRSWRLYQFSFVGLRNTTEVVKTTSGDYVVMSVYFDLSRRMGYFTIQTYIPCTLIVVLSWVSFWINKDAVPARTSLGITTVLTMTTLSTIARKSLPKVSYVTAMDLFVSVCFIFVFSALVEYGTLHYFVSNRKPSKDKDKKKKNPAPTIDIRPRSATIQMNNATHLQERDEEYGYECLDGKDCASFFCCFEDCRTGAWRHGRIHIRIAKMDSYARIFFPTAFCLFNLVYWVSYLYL
EXPERIMENTAL_PROTOCOL: GABAA receptor two-electrode voltage clamp in oocytes at saturated drug concentration
Format: cell-based, human α1, rat β2 and γ2s
CONDITION: saturating aqueous concentration
PROPERTY_LABEL: GABAA receptor modulation (in words)

CCCCC; positively modulate
CCCC; positively modulate
FC1CC(F)(F)C(F)(F)C1(F)F (centres unmarked); potentiates
FC1C(F)C(F)(F)C(F)(F)C1(F)F (centres unmarked); potentiates

---

TEST_TARGET: GABAA (α1β2γ2s) receptors (UniProt P14867+P18508+P63138)
Construct: expressed in transfected cells; host or cells: Xenopus laevis oocytes (intranuclear plasmid injection, α1:β2:γ2 = 1:1:10)
EXPERIMENTAL_PROTOCOL: GABAA receptor two-electrode voltage clamp in oocytes at saturated drug concentration
Assay type: cell-based, human α1, rat β2 and γ2s
CONDITION: drug with γ-aminobutyric acid; percent of control agonist peak; mean ±SEM, 5-6 oocytes; saturated drug
Flag rule - GABAA % Agonist Effect less than 300% flags 1; the remaining entries get 0.

Here's what some known entries look like.
Cc1cccc(C)c1; 0
CCCCCCCCF; 1

## Task Decide: GABAA % Agonist Effect of `C#CCCCCC` strictly below 300%?
## Result 1

## Task Same lookup for CCCCCCCCSCC [1-(ethylthio)-octane] , please.
## Result 1

## Task Same lookup for `CCCCCCCCC(C)=O` , please.
## Result 0

## Task Same lookup for `C1CCCCC1` , please.
## Result 0

## Task Same lookup for `C=CCCCC` , please.
## Result 1

## Task Same lookup for `CCCCCC` , please.
## Result 1

## Task Same lookup for `CCCC` , please.
## Result 0

---

TEST_TARGET: GABAA (α1β2γ2s) receptors (UniProt P14867+P18508+P63138)
Construct: expressed in transfected cells; host or cells: Xenopus laevis oocytes (intranuclear plasmid injection, α1:β2:γ2 = 1:1:10)
EXPERIMENTAL_PROTOCOL: GABAA receptor two-electrode voltage clamp in oocytes at saturated drug concentration
Assay type: cell-based, human α1, rat β2 and γ2s
CONDITION: drug response without receptor agonist; percent of control agonist peak; mean ±SEM, 5-6 oocytes; saturated drug
PROPERTY_LABEL: GABAA % Direct Effect

CCCCCCCCCCCCCCCCCCN [1-octadecanamine]; none
CCCCCCCCCCC(C)=O [2-dodecanone]; none
CCCCCCCCSCC [1-(ethylthio)-octane]; none
